Molecular target: USP20 zf-UBP domain, tag cleaved (for FP) (human)
Sequence (Q9Y2K6 whole entry, the tested form may be a part): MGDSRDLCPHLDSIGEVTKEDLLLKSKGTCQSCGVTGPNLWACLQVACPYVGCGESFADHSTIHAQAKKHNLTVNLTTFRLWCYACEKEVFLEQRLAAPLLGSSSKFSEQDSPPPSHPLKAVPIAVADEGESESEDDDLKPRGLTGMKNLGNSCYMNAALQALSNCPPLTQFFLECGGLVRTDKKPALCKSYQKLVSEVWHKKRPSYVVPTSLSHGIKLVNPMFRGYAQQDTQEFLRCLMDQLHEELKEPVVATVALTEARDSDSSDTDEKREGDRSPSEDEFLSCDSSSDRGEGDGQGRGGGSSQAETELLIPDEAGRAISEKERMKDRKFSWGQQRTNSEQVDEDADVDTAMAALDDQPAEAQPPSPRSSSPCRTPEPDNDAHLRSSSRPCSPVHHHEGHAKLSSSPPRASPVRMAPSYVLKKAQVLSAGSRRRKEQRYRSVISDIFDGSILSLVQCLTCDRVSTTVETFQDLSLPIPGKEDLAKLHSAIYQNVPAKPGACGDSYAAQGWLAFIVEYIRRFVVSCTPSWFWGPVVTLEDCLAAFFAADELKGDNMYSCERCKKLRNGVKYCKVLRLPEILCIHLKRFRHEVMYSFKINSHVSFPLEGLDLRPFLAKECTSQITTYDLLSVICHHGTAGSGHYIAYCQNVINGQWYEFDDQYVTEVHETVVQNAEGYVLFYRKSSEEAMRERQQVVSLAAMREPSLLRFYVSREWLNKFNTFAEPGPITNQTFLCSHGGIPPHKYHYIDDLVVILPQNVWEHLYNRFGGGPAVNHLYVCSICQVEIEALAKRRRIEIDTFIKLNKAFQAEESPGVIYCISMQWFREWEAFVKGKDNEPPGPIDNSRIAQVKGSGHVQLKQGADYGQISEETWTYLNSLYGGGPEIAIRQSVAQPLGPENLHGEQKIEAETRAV
Test: fluorescence polarisation; displacement: unlabeled peptide titrated into the domain (at two-fold the KD of the FITC-labeled peptide) with 10 nM FITC-labeled peptide; 50 mM phosphate buffer pH 7.4, DTT, room temperature; estimated KD
pKd: −log10 of the molar value.

BINDER: Ac-AQSKTQLEVRPV-NH2 [ROBO1_(1495-1506) peptide]
pKd: 4.09

Value source: paper PMC13376213
